molecular target: CDK5/CDK5R1 (Homo sapiens, UniProt Q00535); experiment: NanoBRET live-cell target engagement, CDK5-NanoLuc/CDK5R1 in HEK-293; assay type: binding; conditions: CDK5/CDK5R1; n=3 average ± SEM, n=2 average to 2 significant figures; read-out: IC50 (nM) Average*
Sequence (Q00535 whole entry): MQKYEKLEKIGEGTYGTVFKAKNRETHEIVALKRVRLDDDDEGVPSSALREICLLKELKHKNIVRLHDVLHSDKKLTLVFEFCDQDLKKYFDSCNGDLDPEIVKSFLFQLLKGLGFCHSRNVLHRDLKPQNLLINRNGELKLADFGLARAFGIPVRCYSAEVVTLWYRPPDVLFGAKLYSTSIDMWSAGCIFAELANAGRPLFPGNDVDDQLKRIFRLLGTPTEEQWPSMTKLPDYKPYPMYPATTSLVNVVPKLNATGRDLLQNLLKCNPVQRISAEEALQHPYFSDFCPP
Sequence (Q15078 whole entry partner): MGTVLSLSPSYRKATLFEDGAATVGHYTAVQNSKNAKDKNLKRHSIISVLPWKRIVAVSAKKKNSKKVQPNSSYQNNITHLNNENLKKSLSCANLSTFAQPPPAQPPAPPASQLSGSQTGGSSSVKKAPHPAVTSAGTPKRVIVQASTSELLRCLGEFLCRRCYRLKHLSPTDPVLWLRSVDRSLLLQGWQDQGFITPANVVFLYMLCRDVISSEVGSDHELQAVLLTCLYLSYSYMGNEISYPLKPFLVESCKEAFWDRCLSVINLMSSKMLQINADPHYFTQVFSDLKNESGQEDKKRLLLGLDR
IC50 values for the molecules below.

Report IC50 for CNC1CCN(C(=O)c2ccc(Nc3ncc(F)c(-c4cnc(C)n4C(C)C)n3)cc2)C1 (centres unmarked) [AZD5597] please.
10 nM

With those in mind, consider the next molecule.
Request the reported IC50 associated with CC(C)c1cnn2c(NCc3ccccc3)cc(N[C@@H](CO)[C@H](O)CO)nc12 [BS-194]
61 nM

----------
Entries annotated with measured Inhibition at 10µM (%)
molecular target: CDK17/Cyclin Y (Homo sapiens, UniProt Q00537); assay: NanoBRET live-cell target engagement, CDK17-NanoLuc/Cyclin Y in HEK-293; assay type: binding; conditions: CDK17/Y; average
Sequence (Q00537 whole entry): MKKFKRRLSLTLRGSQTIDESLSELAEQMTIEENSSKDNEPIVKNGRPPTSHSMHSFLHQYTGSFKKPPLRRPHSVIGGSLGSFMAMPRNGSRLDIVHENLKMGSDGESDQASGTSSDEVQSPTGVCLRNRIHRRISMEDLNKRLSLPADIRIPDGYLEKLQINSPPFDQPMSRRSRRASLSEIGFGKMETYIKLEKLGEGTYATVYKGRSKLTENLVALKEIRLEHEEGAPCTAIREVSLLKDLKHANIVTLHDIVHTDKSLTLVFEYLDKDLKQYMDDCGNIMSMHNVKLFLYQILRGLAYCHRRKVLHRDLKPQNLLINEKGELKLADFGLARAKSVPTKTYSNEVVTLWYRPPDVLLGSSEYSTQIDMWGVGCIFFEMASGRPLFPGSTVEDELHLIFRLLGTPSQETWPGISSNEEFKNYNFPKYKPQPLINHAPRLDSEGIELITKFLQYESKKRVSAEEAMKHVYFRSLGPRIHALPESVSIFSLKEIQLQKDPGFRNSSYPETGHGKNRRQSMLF
Sequence (Q8ND76 whole entry partner): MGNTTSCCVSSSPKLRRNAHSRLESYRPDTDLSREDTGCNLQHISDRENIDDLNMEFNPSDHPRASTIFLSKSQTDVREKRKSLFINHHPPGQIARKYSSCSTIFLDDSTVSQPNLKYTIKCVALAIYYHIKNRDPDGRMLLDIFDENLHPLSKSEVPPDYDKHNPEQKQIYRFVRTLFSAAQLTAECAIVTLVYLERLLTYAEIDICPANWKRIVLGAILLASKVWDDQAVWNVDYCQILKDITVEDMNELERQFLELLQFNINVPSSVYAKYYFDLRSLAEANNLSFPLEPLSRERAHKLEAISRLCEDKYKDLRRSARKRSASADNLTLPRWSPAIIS
Number only, in %; omit the unit.

Dear colleague, I am looking for the recorded Inhibition at 10µM (%) of the following compound: `CC(C)c1c2cc(-c3ccnc(N[C@H]4CC[C@H](NC5CCOCC5)CC4)n3)ccc2nn1C`
90.5

Returns the measured Inhibition at 10µM (%) for the input compound. Input: `CS(=O)(=O)N1CCC(NC(=O)c2[nH]ncc2NC(=O)c2c(Cl)cccc2Cl)CC1`
92.4

Using the record for `CNc1nc(C)c(-c2nc(Nc3cccc(S(N)(=O)=O)c3)ncc2F)s1` , report its Inhibition at 10µM (%).
92.2

State the recorded Inhibition at 10µM (%) for this entry: CCn1cnc2c(Nc3cccc(Cl)c3)nc(N[C@@H]3CCCC[C@@H]3N)nc21 [CGP74514A]
80.2

Field request: Inhibition at 10µM (%) | item: CC(C)c1cnn2c(NCc3ccccc3-n3cccn3)nc(OC3CCCNC3)nc12 (stereo not drawn)
90.8

Pending compound:
Query: Inhibition at 10µM (%); subject: CN1CCC(c2c(O)cc(O)c3c(=O)cc(-c4ccccc4Cl)oc23)C1CO (stereo not drawn)
71.1

----------
target: CDK19/Cyclin C (Homo sapiens); test: NanoBRET live-cell target engagement, NanoLuc-CDK19/Cyclin C in HEK-293; details: IC50, [Probe 1] 0.5 µM (plot: [Probe 3]); n=1
Sequence (Q9BWU1 whole entry): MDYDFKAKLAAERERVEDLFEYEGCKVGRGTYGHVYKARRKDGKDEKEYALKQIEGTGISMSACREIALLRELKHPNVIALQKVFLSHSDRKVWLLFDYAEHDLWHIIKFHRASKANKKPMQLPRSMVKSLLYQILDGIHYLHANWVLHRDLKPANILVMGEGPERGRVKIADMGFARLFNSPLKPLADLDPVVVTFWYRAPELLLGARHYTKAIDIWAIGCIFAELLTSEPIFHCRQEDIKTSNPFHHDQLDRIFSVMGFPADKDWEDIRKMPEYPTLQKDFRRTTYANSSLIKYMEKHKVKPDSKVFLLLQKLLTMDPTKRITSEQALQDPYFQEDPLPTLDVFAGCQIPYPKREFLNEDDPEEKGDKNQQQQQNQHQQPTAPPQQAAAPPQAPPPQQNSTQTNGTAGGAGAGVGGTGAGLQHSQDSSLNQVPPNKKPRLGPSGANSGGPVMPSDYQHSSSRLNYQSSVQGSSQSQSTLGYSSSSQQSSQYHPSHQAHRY
Sequence (P24863 whole entry partner): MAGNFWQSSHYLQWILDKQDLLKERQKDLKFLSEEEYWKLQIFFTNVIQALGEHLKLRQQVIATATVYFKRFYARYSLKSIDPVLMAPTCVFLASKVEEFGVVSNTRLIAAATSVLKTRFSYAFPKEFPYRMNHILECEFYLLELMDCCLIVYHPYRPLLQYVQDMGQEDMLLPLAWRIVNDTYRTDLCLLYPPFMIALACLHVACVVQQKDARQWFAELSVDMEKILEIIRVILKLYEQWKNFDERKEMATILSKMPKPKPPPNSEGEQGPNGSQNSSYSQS
result-type: IC50 (nM)
Your answer is read as nM, so omit the unit and give the number.

May I ask what IC50 has been recorded for `CCN1CCN(Cc2ccc(NC(=O)Nc3ccc(Oc4cc(NC)ncn4)cc3)cc2C(F)(F)F)CC1` ?
9.4

----------
biological target: CDK13/Cyclin K (Homo sapiens); assay: NanoBRET live-cell target engagement, CDK13-NanoLuc/Cyclin K in HEK-293; format: binding; conditions: CDK13/K; 10µM; read-out: Inhibition at 10µM (%) Replicate 1
Sequence (O75909 whole entry): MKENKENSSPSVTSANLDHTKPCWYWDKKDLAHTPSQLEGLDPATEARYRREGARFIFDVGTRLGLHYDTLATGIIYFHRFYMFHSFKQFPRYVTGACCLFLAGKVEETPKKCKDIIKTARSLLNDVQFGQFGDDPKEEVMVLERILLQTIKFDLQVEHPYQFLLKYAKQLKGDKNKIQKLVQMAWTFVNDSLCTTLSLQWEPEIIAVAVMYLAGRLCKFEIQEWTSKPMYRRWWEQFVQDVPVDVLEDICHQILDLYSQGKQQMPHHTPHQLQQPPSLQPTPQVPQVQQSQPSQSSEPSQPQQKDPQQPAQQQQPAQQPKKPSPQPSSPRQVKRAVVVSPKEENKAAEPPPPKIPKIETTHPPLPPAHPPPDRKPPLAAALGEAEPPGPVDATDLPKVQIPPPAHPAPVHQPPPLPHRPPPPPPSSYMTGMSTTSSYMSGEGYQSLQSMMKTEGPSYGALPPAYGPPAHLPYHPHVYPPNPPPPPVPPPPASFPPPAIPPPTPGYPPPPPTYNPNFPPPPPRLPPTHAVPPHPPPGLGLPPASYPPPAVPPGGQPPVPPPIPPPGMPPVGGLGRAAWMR
Sequence (Q14004 other isoform, or with tags, fused parts or gaps): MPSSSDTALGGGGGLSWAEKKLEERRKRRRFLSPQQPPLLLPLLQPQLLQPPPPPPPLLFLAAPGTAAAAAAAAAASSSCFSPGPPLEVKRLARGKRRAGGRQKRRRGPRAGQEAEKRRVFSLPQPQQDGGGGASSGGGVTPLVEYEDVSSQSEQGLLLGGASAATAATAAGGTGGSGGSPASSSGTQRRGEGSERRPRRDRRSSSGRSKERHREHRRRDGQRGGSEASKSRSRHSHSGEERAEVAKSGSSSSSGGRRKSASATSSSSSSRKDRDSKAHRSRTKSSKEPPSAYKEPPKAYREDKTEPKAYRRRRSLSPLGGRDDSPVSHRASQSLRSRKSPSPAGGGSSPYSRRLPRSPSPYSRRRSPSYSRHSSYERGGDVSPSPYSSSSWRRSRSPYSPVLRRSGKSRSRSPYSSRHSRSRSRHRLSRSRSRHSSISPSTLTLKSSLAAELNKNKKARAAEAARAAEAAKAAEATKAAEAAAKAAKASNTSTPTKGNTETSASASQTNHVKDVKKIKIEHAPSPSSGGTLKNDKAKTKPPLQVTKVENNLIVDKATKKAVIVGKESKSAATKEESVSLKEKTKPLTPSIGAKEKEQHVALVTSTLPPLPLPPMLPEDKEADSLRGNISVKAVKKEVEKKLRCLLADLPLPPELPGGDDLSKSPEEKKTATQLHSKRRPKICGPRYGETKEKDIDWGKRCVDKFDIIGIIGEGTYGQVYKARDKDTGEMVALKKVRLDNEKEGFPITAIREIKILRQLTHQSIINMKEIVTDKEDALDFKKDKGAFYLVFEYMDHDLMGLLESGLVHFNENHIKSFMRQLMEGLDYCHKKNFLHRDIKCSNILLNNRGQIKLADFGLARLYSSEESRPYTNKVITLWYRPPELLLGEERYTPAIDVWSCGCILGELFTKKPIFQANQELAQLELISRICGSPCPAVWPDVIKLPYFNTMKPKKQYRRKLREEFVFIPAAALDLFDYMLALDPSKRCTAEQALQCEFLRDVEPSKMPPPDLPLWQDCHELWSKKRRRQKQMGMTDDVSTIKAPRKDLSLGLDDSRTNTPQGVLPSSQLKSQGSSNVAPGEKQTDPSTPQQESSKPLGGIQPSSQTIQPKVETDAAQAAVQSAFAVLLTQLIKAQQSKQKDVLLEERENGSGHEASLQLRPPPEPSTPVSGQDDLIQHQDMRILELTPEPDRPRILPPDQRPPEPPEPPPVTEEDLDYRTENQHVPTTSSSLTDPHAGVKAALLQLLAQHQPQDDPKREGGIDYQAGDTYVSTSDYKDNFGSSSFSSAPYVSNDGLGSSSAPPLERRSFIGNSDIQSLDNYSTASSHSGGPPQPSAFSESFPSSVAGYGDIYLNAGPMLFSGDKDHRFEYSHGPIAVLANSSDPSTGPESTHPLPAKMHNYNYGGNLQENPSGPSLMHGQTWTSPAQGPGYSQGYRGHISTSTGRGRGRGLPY
# inhibition at 10 µM values compiled below
The response must be a number in % with no trailing unit.

Data request, read-out inhibition at 10 µM, for `CCN1CCN(Cc2ccc(Nc3ncc(F)c(-c4cc(F)c5nc(C)n(C(C)C)c5c4)n3)nc2)CC1`
5.2

Continuing:
Entry `COc1cc(F)ccc1-c1ncnc(Nc2cccc(C[S@](C)(=N)=O)c2)n1` : reported inhibition at 10 µM = ?
8

Which inhibition at 10 µM is reported for this molecule? `Cc1ncc(-c2ccnc(Nc3ccc(S(C)(=O)=O)cc3)n2)n1C(C)C`
21.6

Would you kindly share the measured inhibition at 10 µM for `CC(C)c1cnn2c(NCc3ccccc3)cc(NCCCCCCN)nc12` ?
28.9

The measured values listed here are drawn from paper PMC7265341.
